System: Lewis rats
Settings: Lewis rats, single dose, observed 5 days
Procedure: Serum DPP-IV inhibition and observation of acute toxicity of amino boronic dipeptides in Lewis rats. […] After observations were completed or at the onset of a moribund state, humane euthanasia was performed by asphyxiation in 100% CO2.
Assign MTD (maximum tolerated dose) to each entry below.
Give bare numbers, in mg/kg.

Consider the reported MTD (maximum tolerated dose) for these compounds:
CSCC[C@H](N)C(=O)N1CCC[C@H]1B(O)O : 0.16
CC[C@H](C)[C@H](N)C(=O)N1CCC[C@H]1B(O)O : 0.12

Request: Give Lewis rats MTD (maximum tolerated dose) for the following compound: "CC(C)[C@H](N)C(=O)N1CCC[C@H]1B(O)O"
Result: 0.02
